System: Influenza type A (strain A/PR/8/34, ATCC VR-95)
Experiment Description: Influenza antiviral assay: inhibition of virus-induced cytopathic effects (CPE) in MDCK cells, XTT dye reduction
Assay type: cell-based
Measurement Conditions: Influenza A virus, H1N1 / PR/8, MDCK, 96 h, strain A/PR/8/34, MDCK cells, CPE inhibition at 4 days
pEC50: −log10 of the molar value.
Property Name: pEC50

[[record]]
molecule = "CN1CN(C23c4cc(F)ccc4CC2Cc2c(Cl)cccc23)n2ccc(=O)c(O)c2C1=O (stereo not shown)"
system_under_test = "Influenza type A (strain A/PR/8/34, ATCC VR-95)"
assay_result = "> 6.90"


Q. Report measured pEC50; entry is O=C1c2c(O)c(=O)ccn2N(C23c4ccccc4CC2Cc2c3ccc(F)c2F)CN1Cc1cccc(F)c1 (stereo not shown)
A. 6.30 to 6.43

Q. Report measured pEC50; entry is CC(C)CN1C(=O)c2c(O)c(=O)ccn2N(C23c4ccccc4CC2Cc2c(Cl)cccc23)C1C (stereo not shown)
A. < 6.30

Q. Report measured pEC50; entry is CCCN1C(=O)c2c(O)c(=O)ccn2N(C23c4ccccc4CC2Cc2c(Cl)cccc23)C1C (stereo not shown)
A. 6.43 to 6.60

---

compounds and their reported EC50
Tested on: Influenza type A (strain A/PR/8/34, ATCC VR-95)
Experiment Description: Influenza antiviral assay: inhibition of virus-induced cytopathic effects (CPE) in MDCK cells, XTT dye reduction
Type: cell-based
Measurement Conditions: Influenza A virus, H1N1 / PR/8, MDCK, 96 h, strain A/PR/8/34, MDCK cells, CPE inhibition at 4 days

Reference set (3 entries):
[[record]]
compound = "O=C1c2c(O)c(=O)ccn2N(C23c4ccccc4CC2Cc2c(F)cccc23)CN1CCc1ccccc1 (stereo not shown)"
system_under_test = "Influenza type A (strain A/PR/8/34, ATCC VR-95)"
assay_result = "0.125 to 0.25 µM"

[[record]]
compound = "O=C1c2c(O)c(=O)ccn2N(C23c4ccccc4CC2Cc2c(F)cccc23)CN1CC1CCOCC1 (stereo not shown)"
system_under_test = "Influenza type A (strain A/PR/8/34, ATCC VR-95)"
assay_result = "< 0.125 µM"

[[record]]
compound = "CCC12Cc3ccccc3C1(N1CN(C)C(=O)c3c(O)c(=O)ccn31)c1ccccc1C2 (stereo not shown)"
system_under_test = "Influenza type A (strain A/PR/8/34, ATCC VR-95)"
assay_result = "< 0.125 µM"


--- query ---
Q. Report measured EC50; entry is Cc1cc(CN2CN(C34c5ccccc5CC3Cc3ccccc34)n3ccc(=O)c(O)c3C2=O)no1 (stereo not shown)
A. < 0.125 µM

---

compounds and their reported EC50
Tested on: Influenza type A (strain A/PR/8/34, ATCC VR-95)
Experiment Description: Influenza antiviral assay: inhibition of virus-induced cytopathic effects (CPE) in MDCK cells, XTT dye reduction
Format: cell-based
Measurement Conditions: Influenza A virus, H1N1 / PR/8, MDCK, 96 h, strain A/PR/8/34, MDCK cells, CPE inhibition at 4 days

Reference set (3 entries):
[[record]]
compound = "O=C1c2c(O)c(=O)ccn2N(C23c4ccccc4CC2Cc2cc(F)c(F)cc23)CN1Cc1ccccc1 (stereo not shown) [Compound A21]"
system_under_test = "Influenza type A (strain A/PR/8/34, ATCC VR-95)"
assay_result = "250 to 375 nM"

[[record]]
compound = "CCCN1CN(C23c4ccccc4CC2Cc2c3ccc(F)c2F)n2ccc(=O)c(O)c2C1=O (stereo not shown) [Compound A148]"
system_under_test = "Influenza type A (strain A/PR/8/34, ATCC VR-95)"
assay_result = "< 125 nM"

[[record]]
compound = "O=C1c2c(O)c(=O)ccn2N(C23c4ccccc4CC2Cc2c3ccc(F)c2F)CN1C1CC1 (stereo not shown) [Compound A61]"
system_under_test = "Influenza type A (strain A/PR/8/34, ATCC VR-95)"
assay_result = "< 125 nM"


Q. Report measured EC50; entry is CC(CCN1CN(C23c4ccccc4CC2Cc2c3ccc(F)c2F)n2ccc(=O)c(O)c2C1=O)c1ccccc1 (stereo not shown) [Compound A91]
A. > 500 nM
